# TEST_NAME: NCI Yeast Anticancer Drug Screen. Data for the bub3 strain (AID 167)
# STUDY_CONDITIONS: S. cerevisiae bub3 mutant strain, at 50.0 µM (retest, dose inferred, filed as 5.0), stronger effect = higher value
The panel holds about 79,000 compounds, 15% with a hit somewhere; the sample as a whole holds those more often.
Binary classification by growth inhibition, with 60% as an inclusive lower bound for 1.0; all other cases are 0.0.

Example results:
COc1ccc(-c2c(C#N)c(S)n(NS(=O)(=O)c3ccc(C)cc3)c(=O)c2C#N)cc1: 1.0
CC1=C(Br)S(=O)(=O)N(c2ccccc2)C(CBr)=C1Br: 1.0
CC(=O)Nc1ccc(-c2nnc(SCC(=O)Nc3ccc([N+](=O)[O-])cc3)o2)cc1: 1.0
CCOc1cc2c(cc1Cc1c(OC)cc(OC)cc1OC)OCO2: 1.0

Req: # check: growth inhibition of O=S(O)CCCCCSSc1ccc(Cl)cc1 is greater than or equal to 60%
Resp: 1.0

Req: Thanks! And C=C1N(S(=O)(=O)c2ccc(C)cc2)C(=O)OCC12CCCC2 ?
Resp: 0.0

Req: Thanks! And O=C(Oc1ccc(O)c2ccccc12)c1ccccc1 ?
Resp: 0.0

Req: Thanks! And Cc1[nH]c(=O)[nH]c(=O)c1CN(C)Cc1cc(Cl)cc(Cl)c1O ?
Resp: 0.0

Req: Thanks! And CCCCNCc1c(O)ccc2ccccc12 ?
Resp: 1.0

Req: Thanks! And Cc1ccc([S@](=O)c2occc2C=O)cc1 ?
Resp: 1.0

Req: Thanks! And CSCCOC(=O)c1cc(NC(=S)c2ccoc2C)ccc1Cl ?
Resp: 1.0

###

# TEST_NAME: NCI Yeast Anticancer Drug Screen. Data for the mlh1 rad18 strain (AID 175)
# STUDY_CONDITIONS: S. cerevisiae mlh1 rad18 strain growth inhibition; at 5.0 µM (retest, dose inferred, filed as 0.5); stronger effect = higher value
Compounds without any hit were thinned out: in the full panel of roughly 79,000, 15% have a hit.
Binary classification by growth inhibition, with 20% as an inclusive lower bound for Criterion met; all other cases are Criterion not met.

Example results:
c1ccc2c(c1)CC1c3[nH]c4ccccc4c3CCN21 (stereo unspecified): Criterion not met
C[n+]1c(-c2ccc(/C=N\NC(=O)c3cccc(C(=O)N/N=C/c4ccc(-c5cn6ccccc6[n+]5C)cc4)c3)cc2)cn2ccccc21: Criterion not met
COc1ccc(-n2c3c(c4c(N)ncnc42)CCCC3)cc1: Criterion not met

Now let's try a different one.
Req: # check: growth inhibition of CCCCN(CCO)CCNc1ccc(C)c2sc3ccccc3c(=O)c12 is greater than or equal to 20%
Resp: Criterion met

###

# TEST_NAME: NCI Yeast Anticancer Drug Screen. Data for the rad50 strain (AID 155);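 also: 0% = growth of vehicle-only cultures of the same strain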
# STUDY_CONDITIONS: S. cerevisiae rad50 strain growth inhibition; at 50.0 µM
# Protocol: Growth inhibition of yeast strains with defined genetic alterations is measured as a screen for potential anti-cancer activity. Selected strains with alterations in DNA damage repair or cell cycle control were exposed to compounds and growth inhibition was measured relative to vehicle treated controls. The strain used in this assay is rad50
The panel holds about 79,000 compounds, 15% with a hit somewhere; the sample as a whole holds those more often. Active and inactive are the calls of the source. Rule as the data show it: active = growth inhibition above about 70%; inactive = the rest.
Choose one outcome from this list and give only that: true (1) for active, false (0) for inactive

Nc1ccc(S(=O)(=O)NCc2nccs2)cc1: false (0)
CCC(C(c1ccc(Cl)cc1)c1ccc(Cl)c(Cl)c1)[N+](=O)[O-] (stereo unspecified): false (0)
OC(C1CCCC1=N/N=C1/CCCC1C(O)(C(F)(F)Cl)C(F)(F)Cl)(C(F)(F)Cl)C(F)(F)Cl (stereo unspecified): true (1)

Req: Short answer needed: outcome of this test for O=C(/C=C\c1ccc(Cl)c(Cl)c1)c1cccs1 ?
Resp: false (0)

Req: Thanks! And C1CCC(CCCCc2nn[nH]n2)CC1 ?
Resp: true (1)

Req: Thanks! And CC(C)[CH2][Ge]([Cl])([Cl])[Cl] ?
Resp: true (1)

Req: Thanks! And c1ccc2c(c1)CC1c3[nH]c4ccccc4c3CCN21 (stereo unspecified) ?
Resp: true (1)

Req: Thanks! And O=c1ccnc(Sc2ccc([N+](=O)[O-])cc2[N+](=O)[O-])[nH]1 ?
Resp: false (0)

Req: Thanks! And O=C(O)CCn1c2ccccc2c2ccccc21 ?
Resp: false (0)

Req: Thanks! And Cc1ccc2c(C3Cc4ccccc4N3C(=O)/C=C\C(=O)O)c(C)[nH]c2c1 (stereo unspecified) ?
Resp: true (1)

Req: Thanks! And Cc1ccc(C(=O)C(CN(C)C)CN(C)C)cc1C ?
Resp: true (1)

###

Measured growth inhibition accompanies every entry in the list below.
# TEST_NAME: NCI Yeast Anticancer Drug Screen. Data for the mlh1 rad18 strain (AID 175)
# STUDY_CONDITIONS: S. cerevisiae mlh1 rad18 strain growth inhibition; at 50.0 µM (retest, dose inferred, filed as 5.0); stronger effect = higher value
# Protocol: Growth inhibition of yeast strains with defined genetic alterations is measured as a screen for potential anti-cancer activity. Selected strains with alterations in DNA damage repair or cell cycle control were exposed to compounds and growth inhibition was measured relative to vehicle treated controls. The strain used in this assay is mlh1 rad18
This is part of a sample that, as a whole, favours compounds with a hit. Of some 79,000 tested, about 15% had one in any assay.
Report the value in % with no unit label.

A selection of reference data follows.
Nc1nc(N)c2nc(CNc3ccc(C(=O)NC(CCC(=O)O)C(=O)O)cc3)ccc2n1 (stereo unspecified): 8
CP(=O)(c1ccccc1)c1ccccc1: -25
O=C1CSC(=Nc2ccc(F)cc2F)N1Cc1cccs1: 98
Cc1cccc2c(=O)c3ccccc3oc12: 11
COc1ccc(C(=O)C2C(=O)C(=O)OC2C2OC(=O)C(=O)C2C(=O)c2ccc(OC)cc2)cc1 (stereo unspecified): -1

Req: What does the data say about its growth inhibition? Entry: C/C=C/CSc1cc(NC(=S)c2ccsc2C)ccc1Cl
Resp: 89

Req: Thanks! And N#CC(C(=O)CCCC(=O)Nc1cccc([N+](=O)[O-])c1)c1cccc2ccccc12 (stereo unspecified) ?
Resp: 18

Req: Thanks! And CCCCCCCCCCCCCCCC[N+](C)(C)C(C)c1ccc(OC)cc1 (stereo unspecified) ?
Resp: 97

Req: Thanks! And COc1ccc(-c2c(-c3ccccc3)c(C)nc3nc(SC)nc(SC)c23)cc1OC ?
Resp: 96

Req: Thanks! And CCCCCCCCCCCCNC(=O)C[n+]1cccc(C(=O)Nc2ccccc2)c1 ?
Resp: 98

Req: Thanks! And O=C(Nc1ccccc1[N+](=O)[O-])/C(=N/Nc1cccc(Cl)c1)c1c(O)c2ccccc2oc1=O ?
Resp: 44

###

Measured growth inhibition accompanies every entry in the list below.
# TEST_NAME: NCI Yeast Anticancer Drug Screen. Data for the mlh1 rad18 strain (AID 175)
# STUDY_CONDITIONS: S. cerevisiae mlh1 rad18 strain growth inhibition; at 5.0 µM (retest, dose inferred, filed as 0.5); stronger effect = higher value
The panel holds about 79,000 compounds, 15% with a hit somewhere; the sample as a whole holds those more often.
Report the value in % with no unit label.

O=C(O)c1cc2c3ccccc3sc2c2ccccc12: -3
CCc1cccc(C(C)(C)C)c1NC(=S)N/C=C(\C#N)C(=O)c1ccc2ccccc2c1: -6
CN1CCC(OC(=O)c2ccc3ncccc3c2)CC1: -7
COC(=O)c1nnn(-c2ccc(S(N)(=O)=O)cc2)c1C(=O)c1ccc(Cl)c(Cl)c1: 22

Req: What does the data say about its growth inhibition? Entry: CCOC(CCCl)OCC
Resp: 0

Req: Thanks! And Cc1c2c(c(C)c3c1OC(C)(C)CC3)OC(C)(C)CC2 ?
Resp: -13

Req: Thanks! And O=C1CSC(c2c[nH]c3ccccc23)N1c1cccc(Cl)c1 (stereo not drawn) ?
Resp: -5

Req: Thanks! And O=C(O)/C=C\C(=O)Nc1ccc2c(c1)C(=O)c1cc(F)ccc1-2 ?
Resp: 8

###

# TEST_NAME: NCI Yeast Anticancer Drug Screen. Data for the mlh1 rad18 strain (AID 175)
# STUDY_CONDITIONS: S. cerevisiae mlh1 rad18 strain growth inhibition; at 50.0 µM (retest, dose inferred, filed as 5.0)
This is part of a sample that, as a whole, favours compounds with a hit. Of some 79,000 tested, about 15% had one in any assay. The source made the active and inactive calls. Rule as the data show it: active = growth inhibition above about 70%; inactive = the rest.
Choose one outcome from this list and give only that: 1 (yes) (active), 0 (no) (inactive)

Req: Short answer needed: outcome of this test for CC1(CCC(=O)O)c2ccc3ccccc3c2Oc2c1ccc1ccccc21 ?
Resp: 1 (yes)

Req: Thanks! And C=CCNc1nc2c(s1)C(=O)c1ccccc1C2=O ?
Resp: 1 (yes)

Req: Thanks! And S=C(Nc1ccccc1)NC1CCCCCCCCC1 ?
Resp: 0 (no)

meta.source: PubChem BioAssay (NCI)
